Target system: Potassium voltage-gated channel subfamily KQT member 5 (Homo sapiens, UniProt Q9NR82)
Sequence (Q9NR82 whole entry): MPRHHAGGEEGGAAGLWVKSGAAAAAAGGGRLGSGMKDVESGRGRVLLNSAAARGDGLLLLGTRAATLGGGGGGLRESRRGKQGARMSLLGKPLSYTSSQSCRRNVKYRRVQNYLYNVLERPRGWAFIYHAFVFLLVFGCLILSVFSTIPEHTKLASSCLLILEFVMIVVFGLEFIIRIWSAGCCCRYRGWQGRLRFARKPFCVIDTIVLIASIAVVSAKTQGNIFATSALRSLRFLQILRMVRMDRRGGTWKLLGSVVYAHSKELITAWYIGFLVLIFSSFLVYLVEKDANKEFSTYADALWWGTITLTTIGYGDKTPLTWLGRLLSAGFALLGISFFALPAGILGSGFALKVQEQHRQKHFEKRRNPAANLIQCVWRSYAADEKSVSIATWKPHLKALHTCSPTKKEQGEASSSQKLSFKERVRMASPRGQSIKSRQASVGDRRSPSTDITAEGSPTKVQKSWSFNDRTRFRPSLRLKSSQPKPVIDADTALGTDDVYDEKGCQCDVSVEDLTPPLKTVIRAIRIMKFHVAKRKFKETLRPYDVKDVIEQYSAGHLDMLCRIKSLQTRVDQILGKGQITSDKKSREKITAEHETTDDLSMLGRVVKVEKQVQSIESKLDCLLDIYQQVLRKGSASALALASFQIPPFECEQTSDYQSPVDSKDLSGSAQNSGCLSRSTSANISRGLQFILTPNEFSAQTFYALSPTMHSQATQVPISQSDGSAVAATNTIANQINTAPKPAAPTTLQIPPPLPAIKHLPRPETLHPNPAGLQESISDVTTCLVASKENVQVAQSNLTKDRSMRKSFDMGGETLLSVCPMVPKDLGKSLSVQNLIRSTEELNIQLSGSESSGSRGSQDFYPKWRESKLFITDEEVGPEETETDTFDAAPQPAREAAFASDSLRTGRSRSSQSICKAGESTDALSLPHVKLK
Experimental protocol: Agonist activity at human KCNQ5 expressed in CHOK1 cells by whole cell patch clamp assay
Readout kind: pEC50
Give only the number. pEC50 is defined as minus log10 of concentration in molar units.

given_smiles=C#CCN(Cc1ccc(F)cc1)c1ccc(NC(=O)OCC)c(NC(=O)OC(C)(C)C)c1 readout_kind=pEC50 experimental_result=5.77
given_smiles=C#CCN(Cc1ccc(F)cc1)c1ccc(NC(=O)OC(C)(C)C)c(NC(=O)OC(C)(C)C)c1 readout_kind=pEC50 experimental_result=5.61
given_smiles=C#CCN(Cc1ccc(F)cc1)c1ccc(NC(=O)OC(C)(C)C)c(NC(=O)OCC)c1 readout_kind=pEC50 experimental_result=5.86

Name the recorded pEC50 for CCOC(=O)Nc1ccc(NCc2ccc(F)cc2)cc1N .
5.46

* * *

Target system: Potassium voltage-gated channel subfamily KQT member 2 (Rattus norvegicus) (UniProt O88943)
Sequence (O88943 whole entry): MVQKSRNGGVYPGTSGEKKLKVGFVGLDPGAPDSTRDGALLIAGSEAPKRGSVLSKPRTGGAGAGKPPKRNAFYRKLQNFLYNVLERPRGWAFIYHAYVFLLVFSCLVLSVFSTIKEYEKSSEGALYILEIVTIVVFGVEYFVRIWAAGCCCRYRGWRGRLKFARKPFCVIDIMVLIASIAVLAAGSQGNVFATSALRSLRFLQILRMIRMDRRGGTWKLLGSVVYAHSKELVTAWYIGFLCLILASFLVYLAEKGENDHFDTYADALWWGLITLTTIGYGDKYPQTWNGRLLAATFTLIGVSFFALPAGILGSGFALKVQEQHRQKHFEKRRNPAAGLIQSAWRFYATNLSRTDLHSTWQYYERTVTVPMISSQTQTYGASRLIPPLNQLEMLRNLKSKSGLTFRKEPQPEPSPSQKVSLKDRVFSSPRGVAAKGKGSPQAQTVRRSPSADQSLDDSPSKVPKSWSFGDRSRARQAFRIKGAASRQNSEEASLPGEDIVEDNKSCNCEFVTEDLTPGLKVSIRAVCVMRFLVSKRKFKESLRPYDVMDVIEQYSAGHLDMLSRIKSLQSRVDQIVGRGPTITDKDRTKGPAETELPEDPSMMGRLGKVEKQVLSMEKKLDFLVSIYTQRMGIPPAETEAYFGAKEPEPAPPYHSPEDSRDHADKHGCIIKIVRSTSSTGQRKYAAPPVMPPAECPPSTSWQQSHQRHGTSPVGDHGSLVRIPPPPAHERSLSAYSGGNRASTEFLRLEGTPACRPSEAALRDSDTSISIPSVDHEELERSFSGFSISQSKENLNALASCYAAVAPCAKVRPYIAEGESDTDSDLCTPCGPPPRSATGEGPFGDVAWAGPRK
Experimental protocol: Activity at rat KCNQ2 expressed in CHOK1 cells assessed as ratio of amplitude of outward current in presence of test compound to amplitude of outward current in absence of test compound at 10 uM at -10 mV by whole cell patch clamp assay
Format: cell-based
Readout kind: Ratio
# print the numeric value only

Here are 2 compounds together with their reported answers.
given_smiles=C/C=C/CN(Cc1ccc(F)cc1)c1ccc(NC(=O)OCC)c(NC(=O)OCC)c1 readout_kind=Ratio experimental_result=0.87
given_smiles=CCOC(=O)Nc1ccc(N(CC2=CCCCC2)Cc2ccc(F)cc2)cc1NC(=O)OCC readout_kind=Ratio experimental_result=1.19

Name the recorded Ratio for C#CCN(Cc1ccc(F)cc1)c1ccc(NC(=O)OC2CCCC2)c(NC(=O)OC2CCCC2)c1 .
0.21

Name the recorded Ratio for CCOC(=O)Nc1ccc(N(CC#Cc2ccccc2)Cc2ccc(F)cc2)cc1NC(=O)OCC .
1.26

Name the recorded Ratio for C=CCN(Cc1ccc(F)cc1)c1ccc(NC(=O)OCC)c(NC(=O)OCC)c1 .
0.3

* * *

Target system: Potassium voltage-gated channel subfamily KQT member 2 (Rattus norvegicus)
Experimental protocol: Activity at rat KCNQ2 expressed in CHOK1 cells assessed as ratio of amplitude of outward current in presence of test compound to amplitude of outward current in absence of test compound at 10 uM at -10 mV by whole cell patch clamp assay
Type: cell-based
Ratio reference
# print the numeric value only

Here are 5 compounds together with their reported answers.
compound=C#CCN(Cc1ccc(F)cc1)c1ccc(NC(=O)OCC)c(NC(=O)OC(C)C)c1 experimental_result=0.94
compound="CCOC(=O)Nc1ccc(NCc2ccc(F)cc2)cc1N [EZOGABINE]" experimental_result=1.6
compound=C#CCN(Cc1ccc(F)cc1)c1ccc(NC(=O)OCC)c(NC(=O)OCc2ccccc2)c1 experimental_result=0.97
compound=C#CCN(Cc1ccc(F)cc1)c1ccc(NC(=O)OC)c(NC(=O)OC)c1 experimental_result=1.37
compound=C#CCN(Cc1ccc(F)cc1)c1ccc(NC(=O)Oc2ccccc2)c(NC(=O)Oc2ccccc2)c1 experimental_result=0.91

Which measured Ratio belongs to C#CCN(Cc1ccc(F)cc1)c1ccc(NC(=O)OCC)c(NC(=O)OCC)c1 , tested on Potassium voltage-gated channel subfamily KQT member 2 (Rattus norvegicus)?
0.94

Which measured Ratio belongs to C#CCN(Cc1ccc(F)cc1)c1ccc(NC(=O)OCC=C)c(NC(=O)OCC=C)c1 , tested on Potassium voltage-gated channel subfamily KQT member 2 (Rattus norvegicus)?
0.67

Which measured Ratio belongs to C#CCN(Cc1ccc(F)cc1)c1ccc(NC(=O)OC2CCC2)c(NC(=O)OC2CCC2)c1 , tested on Potassium voltage-gated channel subfamily KQT member 2 (Rattus norvegicus)?
0.26

Which measured Ratio belongs to C#CCN(Cc1ccc(F)cc1)c1ccc(NC(=O)OCC)c(NC(=O)OCCC)c1 , tested on Potassium voltage-gated channel subfamily KQT member 2 (Rattus norvegicus)?
1.07

Which measured Ratio belongs to C#CCN(Cc1ccc(F)cc1)c1ccc(NC(=O)OC(C)(C)C)c(NC(=O)OCC)c1 , tested on Potassium voltage-gated channel subfamily KQT member 2 (Rattus norvegicus)?
1.07

The reported measurements were obtained from ChEMBL document CHEMBL4382285.
